- System: NCI-H460
- experiment_description: Antiproliferative (cytotoxicity) test, sulforhodamine B, NCI-H460 cells
- Assay type: cell-based, human
- setup_conditions: Homo sapiens, NCI-H460; 2 h exposure, 72 h recovery, sulforodamine B; concentration inhibiting 50% of cell survival; read-out: NCI-H460 IC50
quantity_measured: IC50

{"columns": ["compound", "measured"],
 "data": [
  ["CCC1(CC(=O)O)OC(=O)c2c1cc1n(c2=O)Cc2c-1nc1ccccc1c2/C=N/OCc1ccccc1 (stereo not shown)", "> 1000 nM"]
]}

---

- System: NCI-H460
- experiment_description: Antiproliferative (cytotoxicity) test, sulforhodamine B, NCI-H460 cells
- Format: cell-based, human
- setup_conditions: 2 h exposure, 72 h recovery, sulforodamine B; concentration inhibiting 50% of cell survival; read-out: NCI-H460 IC50
quantity_measured: IC50 (µM)

{"columns": ["compound", "quantity_measured", "comparison_sign", "measured"],
 "data": [
  ["CCC1(CC(=O)O)OC(=O)c2c1cc1n(c2=O)Cc2c-1nc1ccccc1c2/C=N/OC(C)(C)C (centres unmarked)", "IC50", ">", 1],
  ["CCC1(O)CC(=O)OCc2c1cc1n(c2=O)Cc2c-1nc1ccccc1c2/C=N/OCc1ccccc1 (centres unmarked)", "IC50", "=", 0.007],
  ["CCC1(CC(=O)OC(C)(C)C)OC(=O)c2c1cc1n(c2=O)Cc2cc3ccccc3nc2-1 (centres unmarked)", "IC50", ">", 1],
  ["CCC1(CC(=O)O)OC(=O)c2c1cc1n(c2=O)Cc2cc3ccccc3nc2-1 (centres unmarked)", "IC50", ">", 1],
  ["CCC1(O)CC(=O)OCc2c1cc1n(c2=O)Cc2c-1nc1ccccc1c2C=NOC(C)(C)C (centres unmarked)", "IC50", "=", 0.026]
]}
